Target: CB1 (rCB1) (Rattus norvegicus, UniProt P20272)
Sequence (P20272 whole entry): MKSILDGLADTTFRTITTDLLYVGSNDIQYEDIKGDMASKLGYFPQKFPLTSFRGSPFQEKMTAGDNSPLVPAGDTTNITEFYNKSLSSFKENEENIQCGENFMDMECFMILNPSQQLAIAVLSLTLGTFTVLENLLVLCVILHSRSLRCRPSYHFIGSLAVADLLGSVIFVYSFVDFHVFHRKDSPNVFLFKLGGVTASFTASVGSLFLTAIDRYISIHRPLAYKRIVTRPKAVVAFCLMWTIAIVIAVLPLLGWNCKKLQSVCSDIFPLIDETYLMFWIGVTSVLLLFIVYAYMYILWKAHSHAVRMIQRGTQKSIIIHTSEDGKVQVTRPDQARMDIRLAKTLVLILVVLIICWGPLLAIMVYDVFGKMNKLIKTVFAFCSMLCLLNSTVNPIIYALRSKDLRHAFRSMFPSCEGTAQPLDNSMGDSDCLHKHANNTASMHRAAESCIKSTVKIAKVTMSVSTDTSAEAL
Assay: Single-point radioligand displacement screen
Assay type: binding
Details: 10 µM, 1 µM or 300 nM by cell colour (not visible)
readoutLabel: % 1H-CP-55,940 displacement (mean) from single point screen (%)

INSERT INTO results (compound, assayresult) VALUES
  ('O=C(OCC1CSc2ccccc2O1)c1cc(Oc2ccccc2)ccn1 (centres unmarked) [compound 50267]', 15.53),
  ('Cc1cc(C(=O)N2CC3(CCC3)C2c2ccco2)nn1-c1cccc(C(F)(F)F)c1 (centres unmarked) [10_10]', 94.41),
  ('COC(=O)C(NC(=O)c1cc(C)n(-c2cccc(Cl)c2)n1)c1ccc(C(F)(F)F)cc1 (centres unmarked) [compound 14083]', 24.29),
  ('COC(=O)C(NC(=O)c1cc(C)n(-c2ccccc2)n1)c1cccnc1 (centres unmarked) [compound 03453]', -5.45),
  ('Cc1ccccc1-n1c(=O)c2ccccc2n2c(SC[C@H]3CCCO3)nnc12 [compound 97662]', 18.48);

---

Below, each entry is listed with its recorded rep2_displacement.
Target: CB1 (rCB1) (Rattus norvegicus, UniProt P20272)
Test: Single-point radioligand displacement screen
Format: binding
Settings: Figure 1c source data, replicate 2
readoutLabel: rep2_displacement

INSERT INTO measurements (compound, assayresult) VALUES
  ('O=c1c2cnn(-c3ccccc3)c2nnn1Cc1cc(Cl)ccc1Cl', 38.4),
  ('Cc1cc(C(=O)NC(c2cccnc2)C2CC2)nn1-c1cccc(C#N)c1 (stereo not drawn)', 34.8),
  ('CC(O)C1CCCN(C(=O)c2cc(Oc3cccc(Br)c3)ccn2)C1 (stereo not drawn)', 11.4),
  ('COC(=O)C(OC(=O)c1cc(C)n(-c2cccc(Cl)c2)n1)c1ccsc1 (stereo not drawn)', 28),
  ('O=C(c1ccccc1CS(=O)(=O)c1ccccc1)N1CCC(c2cccc(F)c2)C1 (stereo not drawn)', 36.7),
  ('O=C1C(=O)N(C23CC4CC(CC(C4)C2)C3)C(=O)N1CC1CCC(C(F)(F)F)CC1 (stereo not drawn)', 42.6),
  ('CC(C)c1ncc(Cl)c(C(=O)N2CC(Cc3ccccc3Cl)C2)n1', 25.1),
  ('COC1CCn2cc(C(=O)NCC(Cc3ccccc3)c3ccccc3)nc2C1 (stereo not drawn)', 20.5),
  ('COC(=O)c1nc(N(C)CCOc2ccc(Br)cc2)sc1C', 29.1);

---

Target: hCB1 (Homo sapiens)
Sequence (P21554 whole entry): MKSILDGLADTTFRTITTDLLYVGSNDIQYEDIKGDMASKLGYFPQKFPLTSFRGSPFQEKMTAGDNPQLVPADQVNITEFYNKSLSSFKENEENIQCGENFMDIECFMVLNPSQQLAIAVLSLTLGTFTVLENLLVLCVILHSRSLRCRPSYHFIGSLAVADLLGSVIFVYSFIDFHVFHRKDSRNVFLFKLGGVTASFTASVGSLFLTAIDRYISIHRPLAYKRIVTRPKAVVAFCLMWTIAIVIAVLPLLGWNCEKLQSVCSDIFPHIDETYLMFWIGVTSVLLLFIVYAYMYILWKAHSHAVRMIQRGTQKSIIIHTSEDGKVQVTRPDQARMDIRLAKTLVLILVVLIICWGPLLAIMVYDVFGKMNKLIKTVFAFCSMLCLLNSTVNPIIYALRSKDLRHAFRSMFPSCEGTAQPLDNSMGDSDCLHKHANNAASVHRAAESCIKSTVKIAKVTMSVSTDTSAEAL
Experiment: bioSensAll ebBRET signaling profiling, hCB1
Format: cell-based
Design: host or cells: HEK293SL cells, transient PEI transfection
Settings: read-out: Emax [95% CI], hCB1 Gi1; normalized to CP-55,940
readoutLabel: Emax (%)

INSERT INTO results (compound, testedon, readoutlabel, unitsofmeasure, assayresult) VALUES
  ('Cc1nn(Cc2ccc(Cl)cc2)c(C)c1C(=O)OCC1CSc2ccccc2O1 (stereo not drawn)', 'hCB1 (Homo sapiens)', 'Emax', '%', 31),
  ('Cc1cc(C(=O)NC(c2ccccc2)c2ccco2)nn1-c1cccc(C(F)(F)F)c1 (stereo not drawn)', 'hCB1 (Homo sapiens)', 'Emax', '%', 49),
  ('Cn1nc(-c2nnc(C(C)(C)Oc3ccc(Cl)cc3)o2)c2ccccc2c1=O', 'hCB1 (Homo sapiens)', 'Emax', '%', 49);

Taken from paper PMC11882969.
